FYI, the data here is from ChEMBL document CHEMBL5126603.

target: L-type calcium channel phenylalkylamine site (Homo sapiens, UniProt O60840+Q01668+Q13698+Q13936); assay: Inhibition of L-type calcium channel phenylalkylamine site (unknown origin) at 10 uM relative to control; format: protein assay
measurement_label: inhibition at 10 µM

Exam item: For `Cn1nc(C(=O)OCCCCNC[C@H](O)c2ccc(O)c3[nH]c(=O)ccc23)cc1COc1cccc([C@@H](NC(=O)O[C@H]2CN3CCC2CC3)c2ccccc2)c1` , write its inhibition at 10 µM.
Marked response: > 65%
